A collection of variants and their measured protein stability index
B1: STX11 (parent)
chain: FQRAMHDYNQAEMKQRDNCKIRIQ

variants of: B1; experiment: protein stability index of a GFP-peptide fusion (GPS, HEK-293T) (PSI 1-6); higher = more stable; details: c terminus: a fixed tail appended;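 further: lentivirally expressed fusions sorted by FACS into six bins by GFP to DsRed ratio, PSI derived from sequencing read proportions per bin multiplied by bin number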

Worked examples follow.
Q15W	3.09
E12W	2.39
N18T	3.21
K14I	2.3
R22H	2.49
F1Y	2.78
H6W	2.43
R22N	2.61
Q2N	3.61
H6G	2.9

Which protein stability index value is on record for "A4S" ?
2.8

Which protein stability index value is on record for "N18G" ?
2.41

Which protein stability index value is on record for "Q24W" ?
1.6

Which protein stability index value is on record for "Y8T" ?
3.62

Which protein stability index value is on record for "Q15K" ?
2.15

Which protein stability index value is on record for "A11E" ?
3.22

Which protein stability index value is on record for "Q10T" ?
2.39

Which protein stability index value is on record for "F1M" ?
3.82

Which protein stability index value is on record for "K14L" ?
2.44

Which protein stability index value is on record for "A4I" ?
2.18

Which protein stability index value is on record for "D7S" ?
2.21

Which protein stability index value is on record for "D17M" ?
2

Which protein stability index value is on record for "K14A" ?
2.98
